- Tested on: MS2 coat protein
- run_description: apparent KD of MS2 coat protein; designed switch direction (-1 OFF switch, 1 ON switch): -1; higher = weaker reporter binding
- condition_info: input ligand: none
measured_property: apparent KD of MS2 coat protein (nM)

>  <construct_sequence>
UGGAGUAUGUAGGAUAUUCAGGCAAAGAAAGCCGAAGAAGGACAUACUUGAGGAUCACCCAAGUUGUCCAAAAU [Zaanatatri] (Eterna round: R97, puzzle: Exclusion 6)

>  <readout_number>
15.1

$$$$
>  <construct_sequence>
CCCAGUUAUUGAGGAUAUCGUACAUGAGGAUCACCCAUGUAAUAAAUGAGGAUUUCGGGUGUCUACGAGAAGGCAAGGAUAGGC [Ostracism 21 - Jieux - Exclusion NG 2] (Eterna round: R96, puzzle: Exclusion NG 2)

>  <readout_number>
49.6

$$$$
>  <construct_sequence>
GUUUCACAUGAGGAUCACCCAUGUGAGGAUAUCCAUUUGUUAACCGUAGUUAAUAGAUGGAGAAGGCGCGUGAU [JRxlusion 6 - Jieux - Exclusion 1] (Eterna round: R97, puzzle: Exclusion 1)

>  <readout_number>
62.9

$$$$
>  <construct_sequence>
AAGAGGAUUACAGGAUAUGAAGCUAAAACGGCGUUAGAAGGGUAUACAGAGUUACAUGAGGAUCACCCAUGUUGUGAUUUCUAA [AK ExNG1-V2-4.2] (Eterna round: R96, puzzle: Exclusion NG 1)

>  <readout_number>
49.2

$$$$
>  <construct_sequence>
AAGCAGCGAGGAUAUGCUUGAGCGUGUCCUAGUUGAAAUAAACUUGAGGAUCACCCAAGUAGAAGGCGCAGCCC [Rivezaed] (Eterna round: R97, puzzle: Exclusion 2)

>  <readout_number>
49.1

$$$$

====

- System: MS2 coat protein
- run_description: apparent KD of MS2 coat protein; designed switch direction (-1 OFF switch, 1 ON switch): 1; higher = weaker reporter binding
- condition_info: Eterna round: R95; input ligand: none
Kind request: treat 200 nM as inclusive, so apparent KD of MS2 coat protein at 200 nM or higher is satisfied, anything lower is not satisfied.

>  <construct_sequence>
AGUCCAGCCUGAGCUGGACAAAAGCAUGUACAUGAGGAUCACCCAUGUCAUGUACAAGCUUUUUGCUCGUUUUAAAA [Zipper 46 - 13] (puzzle: Sensor for hsa-mir-208a)

>  <group_label>
satisfied

$$$$
>  <construct_sequence>
AAUUCACGAGCACAGGAUAUGCUUGCCAACACAUGAGGAUCACCCAUGUCGGGCUACUAAUAAGAGCAGAAGGGUGACUCAUGAU [Esticece] (puzzle: Same State 2)

>  <group_label>
not satisfied

$$$$
>  <construct_sequence>
GGUUUAGCCAGGCGCAAUUGCGCCUGAAAACAUGAGGAUCACCCAUGUUUGGGACAAGCUUUGCUCCUCGUCUUGCA [Edreisza] (puzzle: Sensor for hsa-mir-208a)

>  <group_label>
satisfied

$$$$
>  <construct_sequence>
GGAGCUGGCACCGAGGAUAUUCAUAUUAAAACAUGAGGAUCACCCAUGUAGGCCAGAAGGCCUUGGGAGAAGGCGGAUCAGCUCG [Xeonanis - 12] (puzzle: Same State 2)

>  <group_label>
satisfied

$$$$
>  <construct_sequence>
AACUAUCUAUCUCAGGAUAUCAUGUCAAAGACAUGAGGAUCACCCAUGUACCAGGAAACUGGUUAUGAGAAGGGAGAUAGAUAGU [Mat - Same State 2 - Mod - D41] (puzzle: Same State 2)

>  <group_label>
satisfied

$$$$
>  <construct_sequence>
GAAGAACAUGAGGAUCACCCAUGUAAGCGGAAGCUAGGAUAUGCGGGAAAGAAAAGAGAAGCAGAAGGAGUAGGAA [JR_SS1_Sub028] (puzzle: Same State 1)

>  <group_label>
not satisfied

$$$$
>  <construct_sequence>
AGAGAACAUGAGGAUCACCCAUGUAAGAGAAGUGUAGGAUAUGUGAGGAGCAGAGGAGGAACAGAAGGACAUGGAG [JR_SS!_Sub072] (puzzle: Same State 1)

>  <group_label>
not satisfied

$$$$
>  <construct_sequence>
AGUCCAGCCUGAGCUGGACAAAAGCAUGUACAUGAGGAUCACCCAUGUUCAUGUACAAGCUUUUUGCUCGUCUUACC [salish99_208a_r3_079] (puzzle: Sensor for hsa-mir-208a)

>  <group_label>
satisfied

$$$$
>  <construct_sequence>
GGCACAAAAGCACAGGAUAUGCAAAAGAACACAUGAGGAUCACCCAUGUAGCCAAAUAACGGGCAGCAGAAGGGUGGGACUGCCA [Ceridi] (puzzle: Same State 2)

>  <group_label>
satisfied

$$$$
>  <construct_sequence>
AUAAAACAUGAGGAUCACCCAUGUCAACAAAGUCGAGGAUAUGGGCAUAUAAAAUAAGAACCAGAAGGCGAAUAAU [salish99_ss1_r3_026] (puzzle: Same State 1)

>  <group_label>
satisfied

$$$$
>  <construct_sequence>
AACAAUCUAUCUGAGGAUAUCAUGAGAAUAACAUGAGGAUCACCCAUGUGCAGGAAAACUGCAUAUGAGAAGGCAGAUAGAUUGG [Mat - Same State 2 - Mod - D21] (puzzle: Same State 2)

>  <group_label>
satisfied

$$$$

====

- Test system: K4 kissing-loop RNA reporter;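 further: bound reporter read as fluorescence of individual clusters on recovered sequencing chips by microscopy, with normalized cluster intensities fitted with a binding model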
- run_description: apparent KD of K4 kissing-loop reporter; higher = weaker reporter binding
- condition_info: Eterna round: R107; input ligand: FMN 200 uM
Each record here notes measured apparent KD of K4 kissing-loop reporter.

>  <construct_sequence>
UGACAUUGCUCAGAUACCAGACUUGAGGAACACCCAAGUGCCAAACGUACAAUAAUAAAAGUCCCUUGGCAGCUGAGCAAUGUCU [TheoBX 14]

>  <unit_descriptor>
nM

>  <apparent KD of K4 kissing-loop reporter>
111

$$$$
>  <construct_sequence>
UAGGAGUGAUGUUCCAUAUCUUGAGCCGAAGGAGCGGCAUUAUAGCCAGGUAGGUCGCGGCAGAAGGUACCAGUGAUGUUGGAAA [Same State Arginine A GF5]

>  <unit_descriptor>
nM

>  <apparent KD of K4 kissing-loop reporter>
182

$$$$
>  <construct_sequence>
UUGUGCAGCAAACGAGUGAUGUUCGACGAUACCAGCCUCGAUAGAGGCCCUUGGCAGCGUAAUAAUCACAGCCAAGGGCUGCACU [#SwitchBubble 4]

>  <unit_descriptor>
nM

>  <apparent KD of K4 kissing-loop reporter>
651

$$$$

====

- System: MS2 coat protein
- run_description: apparent KD of MS2 coat protein; designed switch direction (-1 OFF switch, 1 ON switch): -1; higher = weaker reporter binding
- condition_info: Eterna round: R95; input ligand: FMN 200 uM
# binarize apparent KD of MS2 coat protein: threshold 50 nM inclusive, high side class 1, low side class 0

>  <construct_sequence>
UGUACGAUGCGUGCUGACAUGCGUCGUGCAGCAGGUGAUACAUGAGGAUCACCCAUGUCCUCAUUUGCUCGUCUUAU [Mat - Sensor v3 - Turn-off var 2 - D23] (puzzle: Sensor v3, turn-off variant 2)

>  <group_label>
class 1

$$$$
>  <construct_sequence>
AGUACUAACACGAAAGUGUUAGUACUAUAAGCUUGUGUUACAUGAGGAUCACCCAUGUCCUCAUAAGCUCGUCUUAA [Mat - Sensor v3 - Turn-off var 2 - D63] (puzzle: Sensor v3, turn-off variant 2)

>  <group_label>
class 0

$$$$
>  <construct_sequence>
CCCAGGGCAGGAUAUAGAGGGUGAAACAUGAGGAUCACCCAUGUGACCUCGGAACAGCUGCUAGAAGGGCCAAAUU [Eszaraxe] (puzzle: Exclusion 5)

>  <group_label>
class 0

$$$$
>  <construct_sequence>
UCAAGCUUUAGGCGUGUGAACAUGAGGAUCACCCAUGUAUUUUUGGUUAGGAGUUCUGUAAGGGAUGCUCGUCUUAU [JR_SWV3TOV1_Sub092] (puzzle: Sensor v3, turn-off variant 1)

>  <group_label>
class 1

$$$$
>  <construct_sequence>
GAAAAGGUAGGAUAUACGAAAAAAAAGGGUAGAAAAAAGACACAUGAGGAUCACCCAUGUAGAAGGACCAAAAG [salish99_ex2_r3_019] (puzzle: Exclusion 2)

>  <group_label>
class 1

$$$$

====

Catalogue of apparent KD of MS2 coat protein readings, one per entry.
- Tested on: MS2 coat protein
- run_description: apparent KD of MS2 coat protein; designed switch direction (-1 OFF switch, 1 ON switch): 1; higher = weaker reporter binding
- condition_info: input ligand: none

>  <construct_sequence>
GGUAUCGACGCAGGAUAUGCUAUCCUUUGGGUAGCAGAAGGGUGGACAUGAGGAUCACCCAUGUGGGUGCCAGGGCGUGAGCCC [JL SSNG1 1.83] (Eterna round: R96, puzzle: Same State NG 1)

>  <system_under_test>
MS2 coat protein

>  <apparent KD of MS2 coat protein, µM>
0.44

$$$$
>  <construct_sequence>
GCUCGACUGAUGGCCUACAUGAGGAUCACCCAUGUGAUUGGGCAGGAUAUCUAGAUGCAGGAUGUAGAGAAGGGCCAGUCGAGC [SameState NG3 #45] (Eterna round: R96, puzzle: Same State NG 3)

>  <system_under_test>
MS2 coat protein

>  <apparent KD of MS2 coat protein, µM>
0.503

$$$$
>  <construct_sequence>
AGCUAUUAAUCAGGAUAUGGUGACAUGAGGAUCACCCAUGUAUAGAUGAUUAAAUGUGGUCUAUACUAGAAGGGAUUACUAACA [SameState NG2 #53] (Eterna round: R96, puzzle: Same State NG 2)

>  <system_under_test>
MS2 coat protein

>  <apparent KD of MS2 coat protein, µM>
0.626

$$$$
